Tested on: HOP-62
Experiment: NCI tumour cell line growth inhibition, 48 h
Calls of active or inactive are those of the source. Rule as the data show it: active = GI50 up to about 1.1 µM and inactive = higher.
// reported GI50 per item
Quantity: GI50

> print(dat)
                                    compound   experimental.value
 1  CCN(CC)CCCNc1ccc2nc(C)n3c4ccc(O)cc4c(=O)c1c23   3.21 µM (inactive)
 2                         NC(=O)C#CC#CC#CCO   10.9 µM (inactive)
 3  CC1(C)[C@@H]2C[C@H]1[C@@H](Cc1cccc(C[C@H]3c4cc(-c5ccccn5)ncc4[C@H]4C[C@@H]3C4(C)C)c1)c1cc(-c3ccccn3)ncc12   17.5 µM (inactive)
 4  O=[N+]([O-])c1ccc2nc3n(c2c1)C(c1c(F)cccc1F)SC3 (stereo not given)  > 100 µM (inactive)
 5  O=C1OS2(OC(=O)c3cccc4cccc2c34)c2ccccc21 (stereo not given)  > 100 µM (inactive)
 6  O=C1C=CC=C/C1=C1\N=C(c2ccccc2OCC(=O)c2ccccc2)SS1   39.4 µM (inactive)
 7  O=C(Nc1nnc(S)[nH]1)C(=O)C(C(=O)c1ccc2ccccc2c1)C1OC(=O)c2ccccc21 (stereo not given)   14.7 µM (inactive)
 8       COC(=O)c1cnn2c1n[n+]([O-])c1ccccc12  > 100 µM (inactive)
 9  CN1CN(c2ccccc2)C2(CCN(CC(C)(c3ccc(F)cc3)C3OCCCO3)CC2)C1=O (stereo not given)   16.6 µM (inactive)
10                                  c1ccncc1  > 100 µM (inactive)

Values were extracted from ChEMBL document CHEMBL1201862.
